assay: Pharmacokinetic study in hamsters, plasma; format: in vivo; details: male, Syrian, po, hamster, 100 mg/kg in PEG-400:water (85:15)
Property Label: Cmax (ng/mL)
Your answer should be a plain number; it is taken to be in ng/mL.

Exam item: Please give the documented Cmax of CC(=O)C1=C(O)C(Cc2ccc(-c3ccccc3)cc2)N(CCn2c([N+](=O)[O-])cnc2C)C1=O (stereo not drawn)
Marked response: 616

Exam item: State, in one line, measured Cmax of Cc1ncc([N+](=O)[O-])n1CCO [metronidazole, reference compound]
Marked response: 51000

Exam item: Input CC(=O)C1=C(O)C(Cc2cccc3ccccc23)N(CCn2c([N+](=O)[O-])cnc2C)C1=O (stereo not drawn) , output reported Cmax.
Marked response: 211

###

assay: Pharmacokinetic study in hamsters, plasma; assay type: in vivo; conditions: male, Syrian, po, hamster, 100 mg/kg in PEG-400:water (85:15), read-out: total exposure (AUC) in plasma
Property Label: AUC (ng·h/mL)
Use ng·h/mL as the unit, but write only the number.

Exam item: Report AUC, nothing else, for this molecule: CC(=O)C1=C(O)C(Cc2cccc3ccccc23)N(CCn2c([N+](=O)[O-])cnc2C)C1=O (stereo not drawn)
Marked response: 386

Exam item: Report measured AUC; entry is Cc1ncc([N+](=O)[O-])n1CCO [metronidazole, reference compound]
Marked response: 135000

Exam item: Answer with reported AUC of CC(=O)C1=C(O)C(Cc2ccc(-c3ccccc3)cc2)N(CCn2c([N+](=O)[O-])cnc2C)C1=O (stereo not drawn)
Marked response: 355

###

assay: In vitro microsomal stability; assay type: in vitro ADME; conditions: microsomes; data not shown; read-out: microsomal stability t½ (converted)
Property Label: half-life (min)
Answer with a number only, understood to be in min.

Exam item: // Input: CC(=O)C1=C(O)C(Cc2ccc(-c3ccccc3)cc2)N(CCn2c([N+](=O)[O-])cnc2C)C1=O (centres unmarked) [Compound 2345] . Output its half-life only.
Marked response: 79.8

Exam item: Output half-life of CC(=O)C1=C(O)C(Cc2cccc3ccccc23)N(CCn2c([N+](=O)[O-])cnc2C)C1=O (centres unmarked) [Compound 2344]
Marked response: 18
